test: Testing of peptides for macroscopic membrane formation (phase-contrast microscope, Congo Red staining); type: physicochemical; details: PBS
readout: membranous structure in PBS

Look over these answered cases.
H2N-AEAEAKAK-COOH (H-AEAEAKAK-OH) [EAK8]; −
H2N-GSNKGAIIGLM-CONH2 (H-GSNKGAIIGLM-NH2) [β-Amyloid (25-35), reference compound]; −
Ac-HN-AEAKAEAEAKAK-CONH2 (Ac-AEAKAEAEAKAK-NH2) [EAK12]; +
H2N-ARARADAD-COOH (H-ARARADAD-OH) [ARD8, 8 amino acid counterpart of RAD16]; −

Proceeding to the next substance to report its membranous structure in PBS.
Prompt line: Would you mind telling me what membranous structure in PBS value was observed for H2N-RPKQQFGLM-COHN2 (H-RPKQQFGLM-NH2) [Substance p, reference compound] ?
Response line: −
